Source of measurements: ChEMBL document CHEMBL2429713

Target Or Test System: Proteinase-activated receptor 2 (Homo sapiens)
Sequence (P55085 whole entry): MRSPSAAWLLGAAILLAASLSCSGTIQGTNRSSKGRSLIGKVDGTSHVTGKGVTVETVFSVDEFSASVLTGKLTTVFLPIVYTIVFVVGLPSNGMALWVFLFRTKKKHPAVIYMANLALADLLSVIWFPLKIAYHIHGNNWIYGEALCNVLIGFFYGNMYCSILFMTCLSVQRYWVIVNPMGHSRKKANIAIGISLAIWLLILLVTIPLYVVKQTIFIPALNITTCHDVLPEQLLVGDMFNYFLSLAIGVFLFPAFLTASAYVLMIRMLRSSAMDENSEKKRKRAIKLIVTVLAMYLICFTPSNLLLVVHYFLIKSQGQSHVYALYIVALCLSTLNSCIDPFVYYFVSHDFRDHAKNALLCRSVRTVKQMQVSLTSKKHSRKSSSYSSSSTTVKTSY
Procedure Text: Agonist activity at human PAR2 expressed in HEK293T cells assessed as increase in intracellular calcium level by bioluminescence assay
Type: functional, cell-based, HEK-293T
Endpoint Label: EC50 (nM)
Enter your answer as a number in nM; do not include the unit.

Give reported EC50 value for "C/C(=N\NC(=O)[C@@H]1C(=O)NC[C@H]1c1ccccc1)c1cccc(Br)c1"
30

---

Target Or Test System: Proteinase-activated receptor 2 (Homo sapiens)
Procedure Text: Antagonist activity at PAR2 in human HT-29 cells assessed as inhibition of 2f-LIGRLO-NH2-induced intracellular calcium release
Assay type: functional, cell-based
Endpoint Label: IC50 (nM)
Enter your answer as a number in nM; do not include the unit.

Give reported IC50 value for "CC[C@H](C)[C@H](NC(=O)[C@H](CC1CCCCC1)NC(=O)c1ccno1)C(=O)NCc1ccccc1OC"
400
